Source listed as patent US20240190986A1.

# tested-system: T1, MSLN·His protein (human, UniProt Q13421 296-580, limits assumed)
# T1 construct: Bought protein; also called human MSLN·His antigen; not shown: His tag
# T1 sequence (Q13421 other isoform, or with tags, fused parts or gaps limits assumed): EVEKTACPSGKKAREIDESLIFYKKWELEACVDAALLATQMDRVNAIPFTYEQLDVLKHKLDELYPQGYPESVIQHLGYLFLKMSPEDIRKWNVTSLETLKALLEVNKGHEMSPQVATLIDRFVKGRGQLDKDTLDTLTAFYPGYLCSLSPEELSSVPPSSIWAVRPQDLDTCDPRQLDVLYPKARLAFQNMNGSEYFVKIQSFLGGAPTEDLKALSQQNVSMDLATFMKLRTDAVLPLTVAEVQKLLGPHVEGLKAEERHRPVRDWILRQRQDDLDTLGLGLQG
# assay-text: SPR (Biacore), antibody captured on protein A, MSLN·His as analyte
pKd: recorded values
pKd field: float, defined as -log10 of concentration (mol/L).

# count of solved cases: 2
>  <binder>
M044-IgG4 (antibody, V domains shown, also called M044 heavy chain antibody) VH: QVQVVESGGGFVQAGGSLRLSCAASTPIISIAYMGWYRQISEKERQLVATINSGGKTYYADSVKGRFTISRDNAKNTLYLQMNMLKPEDTGMYYCAASNKDYNDYDPDWGQGTQVTVSS

>  <value-type>
pKd

>  <recorded-measurement>
8.68

$$$$
>  <binder>
M2339-IgG4 (antibody, V domains shown, also called M2339 heavy chain antibody) VH: QLQLGASGGGLVQPGGSLRLSCALSGFTLRELDEFAIGWFRQAPGKEREGVSCISGTGGITHYADSVKGRFTISRDIAKTTVYLQMNSLNSEDTAVYYCAADERCTDRLIRPPTYWGQGTQVTVSS

>  <value-type>
pKd

>  <recorded-measurement>
9.58

$$$$

# input Endpoint output: pKd of M003-IgG4 (antibody, V domains shown, also called M003 heavy chain antibody) VH: QVQLVESGGGLVQAGGSLRLSCTASGNIFSINAMGWYRQPPGKEWERELVATISSTNSDNTYYKESVKGRFTISTNTAKNTWYLQMNSLKPEDTAMYYCAAENFDRKDRYWAQGTQVTVSS . Value?
# output 9.31

# input Entry to check: M129-IgG4 (antibody, V domains shown, also called M129 heavy chain antibody) VH: QVQLVESGGGSAQAGGSLILSCVASANLFTIDALGWYRQAPGPKRELVAAISSGGNKYYADAVKGRFTISRDTLTKTMWLQMNNLKPEDTAMYYCAAEDYGLGQRSWGMGTQVTVSS
# output 10.40

# input Try M156-IgG4 (antibody, V domains shown, also called M156 heavy chain antibody) VH: QVQLVESGGGLVQAGGSLRLSCAVSGISFEYYAIGWFRQAPGKEREAVSCTTSGTTSGGGVTDYADSLKGRFTISRDVAKNTVYLQMNNLTPEDTAVYYCAADIHCRGYVLFVPSDFGNWGQGTQVTVSS next.
# output 10.05
